- Assayed System: Induced myeloid leukemia cell differentiation protein Mcl-1 (Homo sapiens, UniProt Q07820)
- Sequence (Q07820 whole entry): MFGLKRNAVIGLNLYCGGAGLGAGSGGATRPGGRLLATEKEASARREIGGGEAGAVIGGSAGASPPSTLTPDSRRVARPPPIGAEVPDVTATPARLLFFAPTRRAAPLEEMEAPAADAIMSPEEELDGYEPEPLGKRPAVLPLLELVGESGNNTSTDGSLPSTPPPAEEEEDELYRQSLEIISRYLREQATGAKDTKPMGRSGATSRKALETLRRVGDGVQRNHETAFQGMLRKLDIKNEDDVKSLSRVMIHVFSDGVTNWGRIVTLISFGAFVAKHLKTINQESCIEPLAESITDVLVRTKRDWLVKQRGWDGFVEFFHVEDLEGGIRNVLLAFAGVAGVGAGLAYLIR
- Assay type: functional
Active and inactive are the calls of the source.
Observation Type: IC50

# Compound, Assayed System, Observation Type, Measured Result
measured = [
    ("CCc1nnc(NC(=O)c2cc(-c3ccco3)nc3ccccc23)s1", "Induced myeloid leukemia cell differentiation protein Mcl-1 (Homo sapiens, UniProt Q07820)", "IC50", "3.18 µM (active)"),
]

Memo: O=C1C2C3C=CC(C2C(=O)N1c1cccc(O)c1)C1C2C(=O)N(c4cccc(O)c4)C(=O)C2C31 (stereo not drawn) , reported IC50: 9.49 µM (not active)

In plain terms, Cc1c(O)ccc(/C=N/Nc2nc(-c3cccnc3)nc3ccccc23)c1O has a documented IC50 of 6.03 µM (active)

Cited source: ChEMBL document CHEMBL1201862
